Items are presented alongside their recorded inhibition at 10 µM.
- TARGET ENTITY: Pim1 kinase (h) (Homo sapiens (Human), UniProt P11309)
- Sequence (P11309 whole entry): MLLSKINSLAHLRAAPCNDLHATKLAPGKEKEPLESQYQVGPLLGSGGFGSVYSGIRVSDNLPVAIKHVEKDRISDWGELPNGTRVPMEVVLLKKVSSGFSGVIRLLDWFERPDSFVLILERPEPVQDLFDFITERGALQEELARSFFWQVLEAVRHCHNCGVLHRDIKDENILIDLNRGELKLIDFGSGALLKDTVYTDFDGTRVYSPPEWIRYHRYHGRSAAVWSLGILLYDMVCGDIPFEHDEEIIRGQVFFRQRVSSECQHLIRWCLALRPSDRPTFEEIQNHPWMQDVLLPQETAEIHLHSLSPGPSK
- ASSAY REMARKS: Kinase selectivity panel: Pim1 kinase (h)
- Assay type: biochemical
- EXPERIMENTAL CONTEXT: 10 μM in duplicate, read-out: % inhibition of control values
Provide only the numeric value, understood in %.

Sample records with inhibition at 10 µM:
| COMPOUND SMILES | SCALE UNIT | inhibition at 10 µM |
| --- | --- | --- |
| COCCN1CCC(CNC(=O)c2n[nH]c3ccc(-c4cccc(F)c4F)cc23)CC1 | % | 17 |
| COCCN1CCC(CNC(=O)c2n[nH]c3ccc(OC)cc23)CC1 | % | 2 |
| COc1ccc2[nH]nc(C(=O)NCC3CCN(CCC(=O)O)CC3)c2c1 | % | 12 |

Please find the next molecule below.
## Input Would you mind telling me what inhibition at 10 µM value was observed for COc1ccc2[nH]nc(C(=O)NCC3CCN(CC(=O)O)CC3)c2c1 ?
## Output 0

* * *

- TARGET ENTITY: PKCbeta 1 (h) (Homo sapiens (Human), UniProt P05771)
- Sequence (P05771 whole entry): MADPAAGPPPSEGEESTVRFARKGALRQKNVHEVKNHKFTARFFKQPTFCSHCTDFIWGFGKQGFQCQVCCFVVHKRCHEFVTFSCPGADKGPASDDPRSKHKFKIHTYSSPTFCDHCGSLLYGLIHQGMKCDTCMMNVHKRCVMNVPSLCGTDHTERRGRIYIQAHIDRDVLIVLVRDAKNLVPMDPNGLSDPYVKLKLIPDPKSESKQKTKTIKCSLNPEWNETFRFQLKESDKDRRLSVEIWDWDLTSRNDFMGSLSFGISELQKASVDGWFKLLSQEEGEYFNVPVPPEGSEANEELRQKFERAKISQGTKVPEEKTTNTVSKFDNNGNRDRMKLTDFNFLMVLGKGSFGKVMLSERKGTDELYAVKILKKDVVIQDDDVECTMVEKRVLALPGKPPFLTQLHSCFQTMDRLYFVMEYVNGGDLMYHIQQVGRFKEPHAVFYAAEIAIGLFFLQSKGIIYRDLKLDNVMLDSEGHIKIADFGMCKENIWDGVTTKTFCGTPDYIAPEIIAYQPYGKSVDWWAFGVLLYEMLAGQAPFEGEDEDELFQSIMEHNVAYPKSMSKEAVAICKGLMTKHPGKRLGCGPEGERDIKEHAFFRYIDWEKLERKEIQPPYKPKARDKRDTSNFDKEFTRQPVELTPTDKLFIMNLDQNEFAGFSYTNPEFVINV
- ASSAY REMARKS: Kinase selectivity panel: PKCbeta 1 (h)
- Assay type: biochemical
- EXPERIMENTAL CONTEXT: 10 μM in duplicate, read-out: % inhibition of control values
RECORDED METRIC: inhibition at 10 µM (%)
Provide only the numeric value, understood in %.

Sample records with inhibition at 10 µM:
| COMPOUND SMILES | TARGET ENTITY | SCALE UNIT | RESULT NUMBER |
| --- | --- | --- | --- |
| COCCN1CCC(CNC(=O)c2n[nH]c3ccc(OC)cc23)CC1 | PKCbeta 1 (h) (Homo sapiens (Human), UniProt P05771) | % | 1 |
| COCCN1CCC(CNC(=O)c2n[nH]c3ccc(-c4cccc(F)c4F)cc23)CC1 | PKCbeta 1 (h) (Homo sapiens (Human), UniProt P05771) | % | 28 |
| COc1ccc2[nH]nc(C(=O)NCC3CCN(CCC(=O)O)CC3)c2c1 | PKCbeta 1 (h) (Homo sapiens (Human), UniProt P05771) | % | 0 |

## Input Would you mind telling me what inhibition at 10 µM value was observed for COc1ccc2[nH]nc(C(=O)NCC3CCN(CC(=O)O)CC3)c2c1 ?
## Output 0

* * *

- TARGET ENTITY: human GSK-3β (Homo sapiens (Human))
- Sequence (P49841 whole entry): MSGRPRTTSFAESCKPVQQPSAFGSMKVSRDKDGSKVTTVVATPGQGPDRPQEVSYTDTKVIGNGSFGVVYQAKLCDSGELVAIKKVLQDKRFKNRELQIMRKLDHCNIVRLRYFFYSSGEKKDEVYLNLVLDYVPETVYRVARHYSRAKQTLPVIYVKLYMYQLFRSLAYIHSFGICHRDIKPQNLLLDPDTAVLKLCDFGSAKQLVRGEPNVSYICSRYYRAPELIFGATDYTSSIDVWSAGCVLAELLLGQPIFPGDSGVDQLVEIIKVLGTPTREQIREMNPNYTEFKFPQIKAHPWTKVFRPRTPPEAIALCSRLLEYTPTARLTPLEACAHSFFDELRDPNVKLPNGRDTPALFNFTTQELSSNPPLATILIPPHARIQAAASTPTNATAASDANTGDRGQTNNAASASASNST
- ASSAY REMARKS: GSK-3β LanthaScreen TR-FRET Eu Kinase binding and displacement assay
- EXPERIMENTAL CONTEXT: compounds 16 to 41, LanthaScreen TR-FRET binding and displacement assay, five concentrations 100 μM to 10 nM
RECORDED METRIC: IC50 (nM)
Provide only the numeric value, understood in nM.

Sample records with IC50:
| COMPOUND | SCALE UNIT | IC50 |
| --- | --- | --- |
| CCc1ccc2[nH]nc(C(=O)NCC3CCN(CC(=O)O)CC3)c2c1 [Compound 31] | nM | 960 |
| Cc1noc(C)c1-c1ccc2[nH]nc(C(=O)NCC3CCN(CC(=O)O)CC3)c2c1 [Compound 26, hydrate] | nM | 910 |

Please find the next compound below.
## Input Would you mind telling me what IC50 value was observed for COc1ccc2[nH]nc(C(=O)NCC3CCN(CCCC(=O)O)CC3)c2c1 [Compound 24] ?
## Output 1030

The measured values listed here are drawn from patent US9611249B2.
